FYI, the data here is from paper PMC8657435.

I'd be grateful if you could share measured pIC50 for these entries.
- tested_on: CDK2/cyclin E (Homo sapiens)
- procedure_summary: CDK2/cyclin E kinase inhibition assay ([γ-33P]ATP, peptide substrate)
- Format: biochemical
- condition_set: mixture purine·β-CD 1:1 molar ratio; read-out: CDK2/Cyclin E IC50, Purine·β-CD (1:1)
Formally, pIC50 is defined as -log10 of the concentration c, with c in mol/L.

Problem: Field: pIC50 (CDK2/cyclin E (Homo sapiens)). Entry: CC(C)n1cnc2c(Nc3cccc(C(O)CC45CC6CC(CC(C6)C4)C5)c3)nc(NCCCO)nc21 (stereo not shown) [Compound 4g]
Result: 5.91

Problem: Field: pIC50 (CDK2/cyclin E (Homo sapiens)). Entry: CC(C)n1cnc2c(NCc3ccc(C(=O)CC45CC6CC(CC(C6)C4)C5)cc3)nc(NCCCO)nc21 [Compound 4j]
Result: 4.80

Problem: Field: pIC50 (CDK2/cyclin E (Homo sapiens)). Entry: CC(C)n1cnc2c(Nc3cccc(C(=O)C45CC6CC(CC(C6)C4)C5)c3)nc(NCCCO)nc21 [Compound 4a]
Result: 5.26

Problem: Field: pIC50 (CDK2/cyclin E (Homo sapiens)). Entry: CC(C)n1cnc2c(Nc3ccc(C(O)C45CC6CC(CC(C6)C4)C5)cc3)nc(NCCCO)nc21 (stereo not shown) [Compound 4e]
Result: 5.82

Problem: Field: pIC50 (CDK2/cyclin E (Homo sapiens)). Entry: CC(C)n1cnc2c(Nc3ccc(C(=O)C45CC6CC(CC(C6)C4)C5)cc3)nc(NCCCO)nc21 [Compound 4d]
Result: 5.85

Problem: Field: pIC50 (CDK2/cyclin E (Homo sapiens)). Entry: CC(C)n1cnc2c(Nc3cccc(CC45CC6CC(CC(C6)C4)C5)c3)nc(NCCCO)nc21 [Compound 4c]
Result: 5.73

Problem: Field: pIC50 (CDK2/cyclin E (Homo sapiens)). Entry: CC(C)n1cnc2c(Nc3cccc(C(O)C45CC6CC(CC(C6)C4)C5)c3)nc(NCCCO)nc21 (stereo not shown) [Compound 4b]
Result: 6.80

###

- tested_on: CDK2/cyclin E (Homo sapiens)
- procedure_summary: CDK2/cyclin E kinase inhibition assay ([γ-33P]ATP, peptide substrate)
- Assay type: biochemical
- condition_set: mixture purine·β-CD 1:10 molar ratio; read-out: CDK2/Cyclin E IC50, Purine·β-CD (1:10)
I'd be grateful if you could share measured pIC50 for these entries.
Formally, pIC50 is defined as -log10 of the concentration c, with c in mol/L.

Problem: Can you share its pIC50? I mean this compound: CC(C)n1cnc2c(Nc3ccc(C(=O)C45CC6CC(CC(C6)C4)C5)cc3)nc(NCCCO)nc21 [Compound 4d]
Result: 5.12

Problem: Can you share its pIC50? I mean this compound: CC(C)n1cnc2c(Nc3ccc(C(O)C45CC6CC(CC(C6)C4)C5)cc3)nc(NCCCO)nc21 (stereo not drawn) [Compound 4e]
Result: 4.58

###

- tested_on: CDK2/cyclin E (Homo sapiens, UniProt P24941)
- procedure_summary: CDK2/cyclin E kinase inhibition assay ([γ-33P]ATP, peptide substrate)
- Type: biochemical
- condition_set: mixture purine·β-CD 1:1 molar ratio; read-out: CDK2/Cyclin E IC50, Purine·β-CD (1:1)
pIC50: −log10 of the molar value.
recorded_endpoint: pIC50

Problem: Can you share its pIC50? I mean this compound: CC(C)n1cnc2c(Nc3ccc(CC45CC6CC(CC(C6)C4)C5)cc3)nc(NCCCO)nc21
Result: < 4.40

Problem: Can you share its pIC50? I mean this compound: CC(C)n1cnc2c(NCc3cccc(C(=O)CC45CC6CC(CC(C6)C4)C5)c3)nc(NCCCO)nc21
Result: < 4.40

Problem: Can you share its pIC50? I mean this compound: CC(C)n1cnc2c(Nc3cccc(CCC45CC6CC(CC(C6)C4)C5)c3)nc(NCCCO)nc21
Result: < 4.40
